Data origin, for the record: patent EP4778922A1

test: Mouse pharmacokinetic test; assay type: in vivo, ICR mice; settings: in vivo, 30 mg/kg, PO-30mpk

{"Smiles record": "CC(C)(c1ccc(-c2cccc(OCc3ccnc(P(C)(C)=O)n3)c2)cc1)c1cc(Cl)c(OCCCl)c(C#N)c1", "AUC(0-inf) (µg·h/mL)": 447}
{"Smiles record": "CC(C)(c1ccc(N2CCC(Oc3ccnc(P(C)(C)=O)n3)CC2)cc1)c1cc(Cl)c(OCCCl)c(C#N)c1", "AUC(0-inf) (µg·h/mL)": 316}

----------
Measured clearance values are reported for all entries that follow.
test: Mouse pharmacokinetic test; type: in vivo, ICR mice; conditions: plasma, 0.5 mg/kg, IV-0.5mpk

{"Smiles record": "CC(C)(c1ccc(-c2ccc(OCc3ccc(-c4cnc(P(C)(C)=O)nc4)cc3)cc2)cc1)c1cc(Cl)c(OCCCl)c(C#N)c1", "clearance (mL/min/kg)": 0.49}
{"Smiles record": "CC(C)(c1ccc(-c2ccc(OCc3ccnc(N4CC(S(C)(=O)=O)C4)n3)cc2)cc1)c1cc(Cl)c(OCCCl)c(C#N)c1", "clearance (mL/min/kg)": 0.59}
{"Smiles record": "CC(C)(c1ccc(-c2ccc(OCc3ccnc(N4CC(S(C)(=O)=O)C4)n3)cn2)cc1)c1cc(Cl)c(OCCCl)c(C#N)c1", "clearance (mL/min/kg)": 0.63}
